- Target of assay: POU1 (OCT1 POU domain) (human, UniProt P14859 260-458)
- Sequence (P14859 260-458): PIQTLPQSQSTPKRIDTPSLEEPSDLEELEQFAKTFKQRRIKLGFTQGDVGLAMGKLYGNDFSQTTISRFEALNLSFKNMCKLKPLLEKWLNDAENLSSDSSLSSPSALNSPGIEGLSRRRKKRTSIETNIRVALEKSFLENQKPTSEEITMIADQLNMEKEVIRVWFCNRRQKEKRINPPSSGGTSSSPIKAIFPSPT
- Assay protocol: EMSA-SELEX-seq; no BOB1; 20 mM Tris-HCl pH 7.6, 140 mM NaCl, 10% glycerol, 0.5 mM EDTA, 0.05% Triton X-100, 0.1 mg/mL BSA, 0.1 mg/mL poly(dI-dC), 5 mM DTT, room temperature, 20 min; high values mean tight binding
- Measurement context: protein: recombinant; dsDNA, one strand shown
Here the recorded binding signal is given for each entry.

// worked examples, binding signal included
record_sequence=ACGAGAAG measurement_name="binding signal" obs_value="0.0217 % of ANNNNAAN 8-mers"
record_sequence=AGTGCAAA measurement_name="binding signal" obs_value="0.0873 % of ANNNNAAN 8-mers"
record_sequence=ACAAGAAG measurement_name="binding signal" obs_value="0.0347 % of ANNNNAAN 8-mers"
record_sequence=AATCGAAG measurement_name="binding signal" obs_value="0.0408 % of ANNNNAAN 8-mers"
record_sequence=AGAGCAAT measurement_name="binding signal" obs_value="0.0355 % of ANNNNAAN 8-mers"
record_sequence=AGTAGAAG measurement_name="binding signal" obs_value="0.0404 % of ANNNNAAN 8-mers"

Request: Look at this sequence and give its reported binding signal. AGCCGAAA
Result: 0.0191 % of ANNNNAAN 8-mers

Request: Look at this sequence and give its reported binding signal. AACCCAAT
Result: 0.0206 % of ANNNNAAN 8-mers

Request: Look at this sequence and give its reported binding signal. AGAAAAAT
Result: 0.0946 % of ANNNNAAN 8-mers

Request: Look at this sequence and give its reported binding signal. ACTTAAAG
Result: 0.0328 % of ANNNNAAN 8-mers

Request: Look at this sequence and give its reported binding signal. ATGATAAG
Result: 0.0843 % of ANNNNAAN 8-mers
